Source of measurements: the supplement of paper PMC10307832

system: NCI-H838; test: relative viability (nuclei count vs DMSO), 5 days (fraction); higher = more cells survive; conditions: first compound 0.001 µM
property_name: relative viability
Field format: numeric only.

Ask | Look up relative viability of Cc1cn(-c2cc(NC(=O)c3ccc(C)c(Nc4nccc(-c5cccnc5)n4)c3)cc(C(F)(F)F)c2)cn1 [Nilotinib] + O=C(CCCCCCC(=O)Nc1ccccc1)NO [Vorinostat] (partner 1 µM) and report it.
Reply | 0.693

Ask | Look up relative viability of Cc1cn(-c2cc(NC(=O)c3ccc(C)c(Nc4nccc(-c5cccnc5)n4)c3)cc(C(F)(F)F)c2)cn1 [Nilotinib] + Nc1nc2[nH]cc(CCc3ccc(C(=O)N[C@@H](CCC(=O)O)C(=O)O)cc3)c2c(=O)[nH]1 [Pemetrexed] (partner 0.2 µM) and report it.
Reply | 0.246

====

test system: NCI-H3122; assay: relative viability (nuclei count vs DMSO), 5 days (fraction); higher = more cells survive; conditions: first compound 0.001 µM
Under this convention, Condition met denotes relative viability strictly below 0.5 and Condition not met denotes relative viability at or above 0.5.

Ask | # check: relative viability < 0.5 for Cc1cn(-c2cc(NC(=O)c3ccc(C)c(Nc4nccc(-c5cccnc5)n4)c3)cc(C(F)(F)F)c2)cn1 [Nilotinib] + C[C@@H](Oc1cc(-c2cnn(C3CCNCC3)c2)cnc1N)c1c(Cl)ccc(F)c1Cl [Crizotinib] (partner 1 µM)
Reply | Condition met

Ask | # check: relative viability < 0.5 for Cc1cn(-c2cc(NC(=O)c3ccc(C)c(Nc4nccc(-c5cccnc5)n4)c3)cc(C(F)(F)F)c2)cn1 [Nilotinib] + Cc1nc(NC(=O)N2CCC[C@H]2C(N)=O)sc1-c1ccnc(C(C)(C)C(F)(F)F)c1 [Alpelisib] (partner 2 µM)
Reply | Condition not met

Ask | # check: relative viability < 0.5 for Cc1cn(-c2cc(NC(=O)c3ccc(C)c(Nc4nccc(-c5cccnc5)n4)c3)cc(C(F)(F)F)c2)cn1 [Nilotinib] + Cc1cc(Nc2cc(N3CCN(C)CC3)nc(Sc3ccc(NC(=O)C4CC4)cc3)n2)n[nH]1 [Tozasertib] (partner 0.1 µM)
Reply | Condition met

Ask | # check: relative viability < 0.5 for Cc1cn(-c2cc(NC(=O)c3ccc(C)c(Nc4nccc(-c5cccnc5)n4)c3)cc(C(F)(F)F)c2)cn1 [Nilotinib] + CS(=O)(=O)CCNCc1ccc(-c2ccc3ncnc(Nc4ccc(OCc5cccc(F)c5)c(Cl)c4)c3c2)o1 [Lapatinib] (partner 2 µM)
Reply | Condition not met

Ask | # check: relative viability < 0.5 for Cc1cn(-c2cc(NC(=O)c3ccc(C)c(Nc4nccc(-c5cccnc5)n4)c3)cc(C(F)(F)F)c2)cn1 [Nilotinib] + CC(=O)c1c(C)c2cnc(Nc3ccc(N4CCNCC4)cn3)nc2n(C2CCCC2)c1=O [Palbociclib] (partner 0.5 µM)
Reply | Condition met

Ask | # check: relative viability < 0.5 for Cc1cn(-c2cc(NC(=O)c3ccc(C)c(Nc4nccc(-c5cccnc5)n4)c3)cc(C(F)(F)F)c2)cn1 [Nilotinib] + O=C(CCCCCCC(=O)Nc1ccccc1)NO [Vorinostat] (partner 1 µM)
Reply | Condition not met

Ask | # check: relative viability < 0.5 for Cc1cn(-c2cc(NC(=O)c3ccc(C)c(Nc4nccc(-c5cccnc5)n4)c3)cc(C(F)(F)F)c2)cn1 [Nilotinib] + Nc1nc2[nH]cc(CCc3ccc(C(=O)N[C@@H](CCC(=O)O)C(=O)O)cc3)c2c(=O)[nH]1 [Pemetrexed] (partner 0.2 µM)
Reply | Condition met

====

system: NCI-H2023; test: relative viability (nuclei count vs DMSO), 5 days (fraction); higher = more cells survive; details: first compound 20 µM
property_name: relative viability
Field format: numeric only.

Ask | Look up relative viability of Cc1csc(=NC2CCCCC2)n1/N=C/c1ccc(O)c(O)c1O [MIM1] + N=C(N)NC(=N)NCCc1ccccc1 [Phenformin] (partner 250 µM) and report it.
Reply | 0.0931

Ask | Look up relative viability of Cc1csc(=NC2CCCCC2)n1/N=C/c1ccc(O)c(O)c1O [MIM1] + CC1(C)CCC(c2ccc(Cl)cc2)=C(CN2CCN(c3ccc(C(=O)NS(=O)(=O)c4ccc(N[C@H](CCN5CCOCC5)CSc5ccccc5)c(S(=O)(=O)C(F)(F)F)c4)cc3)CC2)C1 [Navitoclax] (partner 0.5 µM) and report it.
Reply | 0.432

Ask | Look up relative viability of Cc1csc(=NC2CCCCC2)n1/N=C/c1ccc(O)c(O)c1O [MIM1] + COc1cccc2cc(-c3nc([C@H]4CC[C@H](C(=O)O)CC4)n4ncnc(N)c34)[nH]c12 [OSI-027] (partner 0.5 µM) and report it.
Reply | 0.0588

Ask | Look up relative viability of Cc1csc(=NC2CCCCC2)n1/N=C/c1ccc(O)c(O)c1O [MIM1] + CS(=O)(=O)CCNCc1ccc(-c2ccc3ncnc(Nc4ccc(OCc5cccc(F)c5)c(Cl)c4)c3c2)o1 [Lapatinib] (partner 2 µM) and report it.
Reply | 0.0707

====

test system: LCLC-103H; experiment: relative viability (nuclei count vs DMSO), 5 days (fraction); higher = more cells survive; conditions: first compound 0.253 µM
Can you tell me relative viability for the items I'm about to list?
Field format: numeric only.

Ask | Look up relative viability of Nc1cccc2c1CN(C1CCC(=O)NC1=O)C2=O (centres undefined) [Lenalidomide] + Nc1nc2[nH]cc(CCc3ccc(C(=O)N[C@@H](CCC(=O)O)C(=O)O)cc3)c2c(=O)[nH]1 [Pemetrexed] (partner 0.2 µM) and report it.
Reply | 0.488

Ask | Look up relative viability of Nc1cccc2c1CN(C1CCC(=O)NC1=O)C2=O (centres undefined) [Lenalidomide] + CCNC(=O)c1noc(-c2cc(C(C)C)c(O)cc2O)c1-c1ccc(CN2CCOCC2)cc1 [Luminespib] (partner 0.01 µM) and report it.
Reply | 1.02

Ask | Look up relative viability of Nc1cccc2c1CN(C1CCC(=O)NC1=O)C2=O (centres undefined) [Lenalidomide] + CC(=O)c1c(C)c2cnc(Nc3ccc(N4CCNCC4)cn3)nc2n(C2CCCC2)c1=O [Palbociclib] (partner 0.5 µM) and report it.
Reply | 0.484

Ask | Look up relative viability of Nc1cccc2c1CN(C1CCC(=O)NC1=O)C2=O (centres undefined) [Lenalidomide] + COc1cc2c(Oc3ccc(NC(=O)C4(C(=O)Nc5ccc(F)cc5)CC4)cc3F)ccnc2cc1OCCCN1CCOCC1 [Foretinib] (partner 0.25 µM) and report it.
Reply | 0.761

====

system: NCI-H2023; assay: relative viability (nuclei count vs DMSO), 5 days (fraction); higher = more cells survive; conditions: first compound 0.001 µM
property_name: relative viability
Field format: numeric only.

Ask | Would you please give the reported relative viability of Cc1cn(-c2cc(NC(=O)c3ccc(C)c(Nc4nccc(-c5cccnc5)n4)c3)cc(C(F)(F)F)c2)cn1 [Nilotinib] + N=C(N)NC(=N)NCCc1ccccc1 [Phenformin] (partner 250 µM) with NCI-H2023?
Reply | 0.461

Ask | Would you please give the reported relative viability of Cc1cn(-c2cc(NC(=O)c3ccc(C)c(Nc4nccc(-c5cccnc5)n4)c3)cc(C(F)(F)F)c2)cn1 [Nilotinib] + CS(=O)(=O)N1CCN(Cc2cc3nc(-c4cccc5[nH]ncc45)nc(N4CCOCC4)c3s2)CC1 [Pictilisib] (partner 1 µM) with NCI-H2023?
Reply | 0.225

Ask | Would you please give the reported relative viability of Cc1cn(-c2cc(NC(=O)c3ccc(C)c(Nc4nccc(-c5cccnc5)n4)c3)cc(C(F)(F)F)c2)cn1 [Nilotinib] + CC(=O)Nc1cccc(-n2c(=O)n(C3CC3)c(=O)c3c(Nc4ccc(I)cc4F)n(C)c(=O)c(C)c32)c1 [Trametinib] (partner 0.02 µM) with NCI-H2023?
Reply | 0.485

Ask | Would you please give the reported relative viability of Cc1cn(-c2cc(NC(=O)c3ccc(C)c(Nc4nccc(-c5cccnc5)n4)c3)cc(C(F)(F)F)c2)cn1 [Nilotinib] + CCNC(=O)c1noc(-c2cc(C(C)C)c(O)cc2O)c1-c1ccc(CN2CCOCC2)cc1 [Luminespib] (partner 0.01 µM) with NCI-H2023?
Reply | 0.854

Ask | Would you please give the reported relative viability of Cc1cn(-c2cc(NC(=O)c3ccc(C)c(Nc4nccc(-c5cccnc5)n4)c3)cc(C(F)(F)F)c2)cn1 [Nilotinib] + COc1cccc2cc(-c3nc([C@H]4CC[C@H](C(=O)O)CC4)n4ncnc(N)c34)[nH]c12 [OSI-027] (partner 0.5 µM) with NCI-H2023?
Reply | 0.303

====

system: NCI-H1792; assay: relative viability (nuclei count vs DMSO), 5 days (fraction); higher = more cells survive; details: first compound 8 µM
property_name: relative viability
Field format: numeric only.

Ask | Look up relative viability of Nc1cccc2c1CN(C1CCC(=O)NC1=O)C2=O (stereo unspecified) [Lenalidomide] + CS(=O)(=O)CCNCc1ccc(-c2ccc3ncnc(Nc4ccc(OCc5cccc(F)c5)c(Cl)c4)c3c2)o1 [Lapatinib] (partner 2 µM) and report it.
Reply | 0.666

Ask | Look up relative viability of Nc1cccc2c1CN(C1CCC(=O)NC1=O)C2=O (stereo unspecified) [Lenalidomide] + N=C(N)NC(=N)NCCc1ccccc1 [Phenformin] (partner 250 µM) and report it.
Reply | 0.189

Ask | Look up relative viability of Nc1cccc2c1CN(C1CCC(=O)NC1=O)C2=O (stereo unspecified) [Lenalidomide] + CC(=O)c1c(C)c2cnc(Nc3ccc(N4CCNCC4)cn3)nc2n(C2CCCC2)c1=O [Palbociclib] (partner 0.5 µM) and report it.
Reply | 0.675

Ask | Look up relative viability of Nc1cccc2c1CN(C1CCC(=O)NC1=O)C2=O (stereo unspecified) [Lenalidomide] + Nc1nc2[nH]cc(CCc3ccc(C(=O)N[C@@H](CCC(=O)O)C(=O)O)cc3)c2c(=O)[nH]1 [Pemetrexed] (partner 0.2 µM) and report it.
Reply | 0.336

Ask | Look up relative viability of Nc1cccc2c1CN(C1CCC(=O)NC1=O)C2=O (stereo unspecified) [Lenalidomide] + CC1(C)CCC(c2ccc(Cl)cc2)=C(CN2CCN(c3ccc(C(=O)NS(=O)(=O)c4ccc(N[C@H](CCN5CCOCC5)CSc5ccccc5)c(S(=O)(=O)C(F)(F)F)c4)cc3)CC2)C1 [Navitoclax] (partner 0.5 µM) and report it.
Reply | 0.364

Ask | Look up relative viability of Nc1cccc2c1CN(C1CCC(=O)NC1=O)C2=O (stereo unspecified) [Lenalidomide] + COc1cccc2cc(-c3nc([C@H]4CC[C@H](C(=O)O)CC4)n4ncnc(N)c34)[nH]c12 [OSI-027] (partner 0.5 µM) and report it.
Reply | 0.756
